# system_name: T1, monkey MSLN on HEK293T-monkey MSLN recombinant cells (monkey)
# T1 construct: Full-length precursor as transfected; processing on the cell is not described; also called HEK293-monkey MSLN
# T1 chain: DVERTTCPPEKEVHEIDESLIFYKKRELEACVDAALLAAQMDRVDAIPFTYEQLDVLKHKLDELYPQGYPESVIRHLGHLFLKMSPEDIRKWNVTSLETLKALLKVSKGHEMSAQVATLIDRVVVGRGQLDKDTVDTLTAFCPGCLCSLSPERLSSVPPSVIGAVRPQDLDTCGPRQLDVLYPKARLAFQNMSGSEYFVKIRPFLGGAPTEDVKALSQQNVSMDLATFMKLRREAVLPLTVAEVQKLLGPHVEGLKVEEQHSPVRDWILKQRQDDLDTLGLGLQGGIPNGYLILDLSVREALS
# procedure_summary: FACS, HEK293T-monkey MSLN cells
Entries and their measured Maximum_MFI follow.

binder	Maximum_MFI (MFI)
F3.80.22-H1 (scFv, not shown: small tags and cut ends, also called S009-F3.80.22 humanized antibody VL1 + VH1) scFv: DIVMTQTPLSLPVTPGEPASISCRSSQSLEHNNGNTYLHWFLQKPGQSPQLLIYKVSNRFSGVPDRFSGSGSGTDFTLKISRVEAEDVGVYYCSQSTHVPFTFGQGTKLEIKGGGGSGGGGSGGGGSEVQLVQSGAEVKKPGATVKISCKVSGYTFTDYEIHWVQQAPGKGLEWMGAFDPEIGGSAYNQKFKDRVTITADKSTDTAYMELSSLRSEDTAVYYCTDYYGSSSGYFDVWGQGTTVTVSS	278
F3.80.22-H10 (scFv, not shown: small tags and cut ends, also called S009-F3.80.22 humanized antibody VL2 + VH2) scFv: DIVMTQTPLSLPVTPGEPASISCRSSQSLEHNNGNTYLHWFLHKPGQSPQLLIYKVSNRFSGVPDRFSGSGSGTDFTLKISRVEAEDVGVYYCSQSTHVPFTFGQGTKLEIKGGGGSGGGGSGGGGSEVQLVQSGAEVKKPGATVKISCKASGYTFTDYEIHWVQQAPGKGLEWMGAFDPEIGGSAYNQKFKDRVTITADKSTSTAYMELSSLRSEDTAVYYCTDYYGSSSGYFDVWGQGTTVTVSS	381
F3.80.22-H7 (scFv, not shown: small tags and cut ends, also called S009-F3.80.22 humanized antibody VL1a + VH3) scFv: DIVMTQTPLSLPVTPGEPASISCRSSQSLEHNDGNTYLHWFLQKPGQSPQLLIYKVSNRFSGVPDRFSGSGSGTDFTLKISRVEAEDVGVYYCSQSTHVPFTFGQGTKLEIKGGGGSGGGGSGGGGSEVQLVQSGAEVKKPGATVKISCKASGYTFTDYEIHWVQQAPGKGLEWMGAFDPEIGGSAYNQKFKDRVTITADKSTSTAYMELSSLRSEDTAVYYCTDYYGSSSGYFDVWGTGTTVTVSS	329
